Entries annotated with measured β-Galactosidase Activity, Cultured With ATC
Test system: tet operator sequence
Test: β-galactosidase activity of a tetracycline-regulated promoter in transformed E. coli with revTetR, in the presence and absence of anhydrotetracycline (atc)
Assay type: cell-based, Escherichia coli
Conditions: RevTetR isolate cultured in the presence of anhydrotetracycline (ATC)
assay endpoint: β-Galactosidase Activity, Cultured With ATC

{"molecule": "TetRrevAF4/13: revTetR(BD) A13A E15D L17L E19V I22I E23K R94H G95N (protein, Modified tetracycline repressor, revTetR(BD) A13A E15D L17L E19V I22I E23K R94H G95N) MSRLDKSKVINSALDLLNVVGIKGLTTRKLAQKLGVEQPTLYWHVKNKRALLDALAVEILARHHDYSLPAAGESWQSFLRNNAMSFRRALLRYHNGAKVHLGTRPDEKQYDTVETQLRFMTENGFSLRDGLYAISAVSHFTLGAVLEQQEHTAALTDRPAAPDENLPPLLREALQIMDSDDGEQAFLHGLESLIRGFEVQLTALLQIV", "experimental result": 2.5827}
{"molecule": "TetRrevAtc4-31: revTetR(BD) A50S D53Y A56G V57I H63Q (protein, Modified tetracycline repressor, revTetR(BD) A50S D53Y A56G V57I H63Q) MSRLDKSKVINSALELLNEVGIEGLTTRKLAQKLGVEQPTLYWHVKNKRSLLYGLGIEILARQHDYSLPAAGESWQSFLRNNAMSFRRALLRYRDGAKVHLGTRPDEKQYDTVETQLRFMTENGFSLRDGLYAISAVSHFTLGAVLEQQEHTAALTDRPAAPDENLPPLLREALQIMDSDDGEQAFLHGLESLIRGFEVQLTALLQIV", "experimental result": 2.181}
{"molecule": "TetRrevAD2/12: revTetR(BD) E23H D53Y A56A E58Q I59T (protein, Modified tetracycline repressor, revTetR(BD) E23H D53Y A56A E58Q I59T) MSRLDKSKVINSALELLNEVGIHGLTTRKLAQKLGVEQPTLYWHVKNKRALLYALAVQTLARHHDYSLPAAGESWQSFLRNNAMSFRRALLRYRDGAKVHLGTRPDEKQYDTVETQLRFMTENGFSLRDGLYAISAVSHFTLGAVLEQQEHTAALTDRPAAPDENLPPLLREALQIMDSDDGEQAFLHGLESLIRGFEVQLTALLQIV", "experimental result": 1.2806}
{"molecule": "TetRrev96/99-10: revTetR(BD) G96N V99P (protein, Modified tetracycline repressor, revTetR(BD) G96N V99P) MSRLDKSKVINSALELLNEVGIEGLTTRKLAQKLGVEQPTLYWHVKNKRALLDALAVEILARHHDYSLPAAGESWQSFLRNNAMSFRRALLRYRDNAKPHLGTRPDEKQYDTVETQLRFMTENGFSLRDGLYAISAVSHFTLGAVLEQQEHTAALTDRPAAPDENLPPLLREALQIMDSDDGEQAFLHGLESLIRGFEVQLTALLQIV", "experimental result": 20.797}
{"molecule": "TetRrev96/99-5: revTetR(BD) G96I V99K (protein, Modified tetracycline repressor, revTetR(BD) G96I V99K) MSRLDKSKVINSALELLNEVGIEGLTTRKLAQKLGVEQPTLYWHVKNKRALLDALAVEILARHHDYSLPAAGESWQSFLRNNAMSFRRALLRYRDIAKKHLGTRPDEKQYDTVETQLRFMTENGFSLRDGLYAISAVSHFTLGAVLEQQEHTAALTDRPAAPDENLPPLLREALQIMDSDDGEQAFLHGLESLIRGFEVQLTALLQIV", "experimental result": 17.087}
